- Test system: HL-60
- PROCEDURE TEXT: NCI tumour cell line growth inhibition, 48 h
The source made the active and inactive calls. Cut-off read from the data, not from the text of the source: active = GI50 up to about 1.1 µM and inactive = higher.
Overview of reported GI50 across a group of molecules:
REPORTED ENDPOINT: GI50

INSERT INTO measurements (molecule, test_target, value_measured) VALUES
  ('N#CC1=C(N)N2C(=O)/C(=C/c3ccccc3)SC2C(c2nc3ccccc3[nH]2)=C1c1ccccc1 (centres undefined)', 'HL-60', '2.31 µM (inactive)'),
  ('C=CCN1CCC(c2cc(C(=O)OCC)[nH]c2-c2cc(C)no2)C1=O (centres undefined)', 'HL-60', '76.2 µM (inactive)'),
  ('COc1ccc(NC(=O)/C(=N\NC(=O)C[n+]2ccccc2)c2c(O)c3ccc(O)cc3oc2=O)c([N+](=O)[O-])c1', 'HL-60', '> 100 µM (inactive)'),
  ('O=C1CCCCC[C@]12SC[C@H]1CON=C12', 'HL-60', '25.9 µM (inactive)'),
  ('CN(C)CCNC(=O)c1cccc2[nH]c(-c3ccc(Cl)cc3)nc12', 'HL-60', '2.77 µM (inactive)'),
  ('O=P(Nc1ccccc1)(Oc1ccccc1)N1CCN(c2ccccc2)CC1 (centres undefined)', 'HL-60', '25 µM (inactive)'),
  ('COc1ccc2nc(NC(=O)C(=O)C(C(=O)c3ccccc3-c3ccccc3)C3OC(=O)c4ccccc43)sc2c1 (centres undefined)', 'HL-60', '16 µM (inactive)'),
  ('CCCCOC(=O)NC(Nc1ccc(S(=O)(=O)Nc2ccc(OC)nn2)cc1)(C(F)(F)F)C(F)(F)F', 'HL-60', '> 100 µM (inactive)'),
  ('c1ccc(-c2cc(-c3cccs3)c(-c3cccs3)o2)cc1', 'HL-60', '> 100 µM (inactive)');

* * *

- Tested on: Malme-3M
- PROCEDURE TEXT: NCI tumour cell line growth inhibition, 48 h
Calls of active or inactive are those of the source. Cut-off read from the data, not from the text of the source: active = GI50 up to about 1.1 µM and inactive = higher.
Outcome codes: true (1) (active), false (0) (inactive)

INSERT INTO measurements (molecule, assigned_category) VALUES
  ('COc1ccc(C(=O)Cc2ccc(Cl)cc2)cc1OC', 'false (0)'),
  ('CCN1CC2=C(NC(=S)NC2c2ccc(Cl)cc2)/C(=C/c2ccc(Cl)cc2)C1 (centres undefined)', 'false (0)'),
  ('COc1ccc(N2C(=O)C(C)SC2c2cc3cc(Br)ccc3nc2Cl)cc1 (centres undefined)', 'false (0)'),
  ('CC1(C)COC(/C=C/C2=NC(C)(C)CO2)=N1', 'false (0)'),
  ('CC1=C(c2cc(C(=O)Nc3cc(C)ccc3C)nc(N)n2)Sc2ccccc2N1', 'false (0)'),
  ('CCOC(=O)Nc1ccc(C)c(NC(=O)OCC)c1', 'false (0)'),
  ('CC(N/N=N/c1ccc(-c2nc3ccccc3[nH]2)cc1)C(=O)O (centres undefined)', 'false (0)'),
  ('CCCCP1(=O)C=CC(Cl)=C(C)C1 (centres undefined)', 'false (0)'),
  ('Cc1ccc(-c2c(C#N)c(-c3ccc(C)cc3)n(NS(=O)(=O)c3ccccc3)c(=O)c2C#N)cc1', 'false (0)'),
  ('CCOC(=O)C1CCC(=O)N1C(=O)c1ccccc1Cl (centres undefined)', 'false (0)'),
  ('CC(C)(C)OC(=O)N1CCC(C(=O)O)CC1', 'false (0)'),
  ('C=CCNC(=S)N1CC(C)C(=O)Nc2cc(Cl)ccc21 (centres undefined)', 'false (0)'),
  ('Cc1ccc(C(=O)NCc2ccccc2)cc1/N=N/N(C)C', 'false (0)'),
  ('C#CCSc1cnc2ccccc2c1Sc1c[nH]c2ccccc2c1=O', 'false (0)'),
  ('Cc1cnc(NCCCN(C)C)c2c1[nH]c1ccc3cc(O)ccc3c12', 'true (1)'),
  ('O=C(NCCO)c1ccc(Cl)cc1', 'false (0)'),
  ('CN(Nc1cc(=O)[nH]c(=O)[nH]1)c1ccccc1', 'false (0)'),
  ('CN(C)c1ccc(/C=C(/NC(=O)c2ccccc2)C(=O)Nc2ccccc2C(=O)O)cc1', 'false (0)'),
  ('CN1c2ccccc2C(=O)NC12CCN(CC1COc3ccccc3O1)CC2 (centres undefined)', 'false (0)'),
  ('C=CCN(N=O)C(=O)N(CCC)CCCCC(NC(C)=O)C(=O)NCc1ccccc1 (centres undefined)', 'false (0)'),
  ('CC(/C=N/N=C1NCCCN1)=N\N=C1NCCCN1', 'false (0)'),
  ('c1sc(NC2=NCCO2)c2c1CCCC2', 'false (0)'),
  ('Cc1cc(S(=O)(=O)NC2=NCCCN2)c(S)cc1Cl', 'false (0)'),
  ('COC(=O)c1c(O)ccc2c1c1c(n2Cc2cccc(C)c2)C(=O)c2ccccc2C1=O', 'false (0)');

* * *

- System: SNB-75
- PROCEDURE TEXT: NCI tumour cell line growth inhibition, 48 h
The source made the active and inactive calls. Cut-off read from the data, not from the text of the source: active = GI50 up to about 1.1 µM and inactive = higher.
Overview of reported GI50 across a group of compounds:
REPORTED ENDPOINT: GI50

INSERT INTO measurements (compound, value_measured) VALUES
  ('CCOc1ccccc1/N=C(/NC(=O)CC)SC', '67.6 µM (inactive)'),
  ('c1ccc2nn(C3CCCO3)nc2c1 (configuration not stated)', '> 100 µM (inactive)'),
  ('CC(=O)N1c2ccccc2C(C)C1c1[nH]c2ccccc2c1C (configuration not stated)', '19.8 µM (inactive)'),
  ('COc1cc(C2c3cc4c(cc3OC3(O)COC(=O)C23)OCO4)cc(OC)c1OC (configuration not stated)', '25.2 µM (inactive)'),
  ('CC1(C)COC(/C=C/C2=NC(C)(C)CO2)=N1', '> 100 µM (inactive)'),
  ('C=CCN1CCC(c2cc(C(=O)OCC)[nH]c2-c2cc(C)no2)C1=O (configuration not stated)', '94.8 µM (inactive)'),
  ('O=[N+]([O-])c1ccc2nc(Nc3ccccc3)c(Nc3ccccc3)nc2c1', '2 µM (inactive)'),
  ('CCCCCCc1cc2cc(-c3cn4ccsc4n3)c(=O)oc2cc1O', '8.15 µM (inactive)'),
  ('O=C(O)CNC(=O)c1c2ccccc2nc2ccccc12', '> 100 µM (inactive)'),
  ('Cc1c(N=C(S)Nc2ccc(Cl)cc2)c(=O)n(-c2ccccc2)n1C', '> 100 µM (inactive)'),
  ('OCCCCOC(c1ccccc1)(c1ccccc1)c1ccccc1', '67.5 µM (inactive)'),
  ('CCOC(=O)C1=C(C)N(NC(N)=O)C2(N)N(NC(N)=O)C(C)=C(C(=O)OCC)C12C(=O)OCC (configuration not stated)', '47.8 µM (inactive)');

* * *

- Tested on: UACC-62
- PROCEDURE TEXT: NCI tumour cell line growth inhibition, 48 h
Activity calls are given as the source filed them. Cut-off read from the data, not from the text of the source: active = GI50 up to about 1.1 µM and inactive = higher. Where a SMILES comes first, the peptide text is derived from it. [ ]: non-standard residue; d: D form. Phe(4-NO2) = N[CH](Cc1ccc([N+](=O)[O-])cc1)C(=O)O
REPORTED ENDPOINT: GI50

INSERT INTO measurements (compound, value_measured) VALUES
  ('COC(=O)CCC(NC(=O)C(CCC(=O)OC)NC(=O)C(CCC(=O)OC)NC(=O)C(CCC(=O)OC)NC(=O)C(CCC(=O)OC)NC(=O)C(Cc1ccc([N+](=O)[O-])cc1)NC(=O)C(CCC(=O)OC)NC(=O)C(CCC(=O)OC)NC(=O)C(CCC(=O)OC)NC(=O)C(CCC(=O)OC)NC(=O)C(CCC(=O)OC)NC(C)=O)C(N)=O (configuration not stated) (Ac-E(OMe)E(OMe)E(OMe)E(OMe)E(OMe)[Phe(4-NO2)]E(OMe)E(OMe)E(OMe)E(OMe)E(OMe)-NH2; configuration not given here)', '> 10 µM (inactive)'),
  ('CCOC(=O)C1=C(C)C2C=C(c3cccs3)CC(c3ccc(Cl)cc3)=C2OC1=O (configuration not stated)', '45.8 µM (inactive)'),
  ('CC1=C(C(N)=O)C(c2ccncc2)C(C#N)=C2SCC(=O)N12 (configuration not stated)', '> 100 µM (inactive)'),
  ('c1ccc2nn(C3CCCO3)nc2c1 (configuration not stated)', '> 100 µM (inactive)'),
  ('CC1(CO)OC1COCc1ccccc1 (configuration not stated)', '> 100 µM (inactive)'),
  ('COC(=O)C1(Cc2ccc3c(c2)CCC3)Cc2ccccc2C1=O (configuration not stated)', '8.43 µM (inactive)'),
  ('O=C1C(Cl)=C(c2ccc([N+](=O)[O-])cc2)C(=O)c2c(O)cccc21', '0.508 µM (active)'),
  ('CC1(C)COC(/C=C/C2=NC(C)(C)CO2)=N1', '15.1 µM (inactive)'),
  ('CC(C)(C)OC(=O)N1CCC(C(=O)O)CC1', '> 100 µM (inactive)'),
  ('COc1cccc(-c2cc(=O)c3ccccc3o2)c1N', '5.27 µM (inactive)'),
  ('COc1ccccc1C1SCC(=O)N1c1ccc(-n2c(-c3ccccc3)nc3ccccc3c2=O)cc1 (configuration not stated)', '29.2 µM (inactive)'),
  ('COC(=O)C1CCC(=O)N1C(=O)Cc1ccc(OC)cc1 (configuration not stated)', '> 100 µM (inactive)');

Values from ChEMBL document CHEMBL1201862
